So I've got a bunch of compounds here, and I need their pIC50 values.
system.tested: UniProt:P11802
Sequence (P11802 whole entry, looked up): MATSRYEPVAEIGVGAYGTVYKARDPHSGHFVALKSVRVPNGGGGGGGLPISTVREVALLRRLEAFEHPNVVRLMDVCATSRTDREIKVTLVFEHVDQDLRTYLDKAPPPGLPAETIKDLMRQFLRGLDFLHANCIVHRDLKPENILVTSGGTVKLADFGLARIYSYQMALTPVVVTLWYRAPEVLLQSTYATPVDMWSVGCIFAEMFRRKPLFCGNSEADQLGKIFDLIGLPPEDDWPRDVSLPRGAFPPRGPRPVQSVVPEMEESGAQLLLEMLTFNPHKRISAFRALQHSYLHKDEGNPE
Sequence (P24385 whole entry partner, looked up): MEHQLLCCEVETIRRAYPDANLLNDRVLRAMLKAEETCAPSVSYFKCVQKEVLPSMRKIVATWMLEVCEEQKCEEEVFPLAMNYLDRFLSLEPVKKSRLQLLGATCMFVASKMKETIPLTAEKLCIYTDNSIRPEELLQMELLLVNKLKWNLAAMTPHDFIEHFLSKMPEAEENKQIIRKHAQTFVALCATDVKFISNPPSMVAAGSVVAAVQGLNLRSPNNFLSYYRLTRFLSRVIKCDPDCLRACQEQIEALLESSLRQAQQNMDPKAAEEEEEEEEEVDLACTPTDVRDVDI
Numbers only, as −log10 of the molar value.

item.smiles: c1cc(Nc2ncc3c(n2)-c2c(cnn2C2CCCCC2)CC3)ncc1N1CCNCC1
pIC50: 7.13
--
item.smiles: c1cc(Nc2ncc3c(n2)-c2c(cnn2C2CCCC2)CC3)ncc1N1CCNCC1
pIC50: 8.10
--
item.smiles: CC(C)c1c2c(nn1C)CC1(CC1)c1cnc(Nc3ccc(N4CCNCC4)cn3)nc1-2
pIC50: 6.99

Lab note: next compound to report on.
Briefly, pIC50 measured for CCN1CCN(Cc2ccc(Nc3ncc4c(n3)-c3c(nn(CC)c3C(C)C)CC4)nc2)CC1 : 8.40
